Data credit: patent US9676789B2

- Test system: Becap37 (human breast cancer cell)
- assay protocol: MTT solid tumor cell growth inhibition, 72 h
- Assay type: cell-based
- experimental conditions: Homo sapiens; Becap37, 72 h; read-out: IC90
Quick list: IC90 per entry.

{"columns": ["molecule", "IC90"],
 "data": [
  ["COC(=O)C[C@](O)(CCCC(C)(C)O)C(=O)O[C@@H]1C(OC)=C[C@]23CCCN2CCc2cc4c(cc2[C@H]13)OCO4 [HHT, reference compound]", "11.6 µg/mL"],
  ["COC1=C[C@]23CCCN2CCc2cc4c(cc2[C@@H]3[C@@H]1OC(=O)[C@@](O)(CCCC(C)(C)O)CC(=O)N1CCCCC1C)OCO4 (stereo partly drawn)", "> 16 µg/mL"],
  ["COC1=C[C@]23CCCN2CCc2cc4c(cc2[C@@H]3[C@@H]1OC(=O)[C@@](O)(CCCC(C)(C)O)CC(=O)N1CCC(N(C)C)CC1)OCO4", "16 µg/mL"],
  ["COC1=C[C@]23CCCN2CCc2cc4c(cc2[C@@H]3[C@@H]1OC(=O)[C@@](O)(CCCC(C)(C)O)CC(=O)NCc1cccs1)OCO4", "> 16 µg/mL"]
]}

Give IC90 for the following molecule: COC1=C[C@]23CCCN2CCc2cc4c(cc2[C@@H]3[C@@H]1OC(=O)[C@@](O)(CCCC(C)(C)O)CC(=O)NCc1ccco1)OCO4 > 16 µg/mL

// fetch IC90 given entry COC1=C[C@]23CCCN2CCc2cc4c(cc2[C@@H]3[C@@H]1OC(=O)[C@@](O)(CCCC(C)(C)O)CC(=O)N1CCN(c2ccccn2)CC1)OCO4 > 16 µg/mL

Give the value of IC90 reported for the following: COC1=C[C@]23CCCN2CCc2cc4c(cc2[C@@H]3[C@@H]1OC(=O)[C@@](O)(CCCC(C)(C)O)CC(=O)N1CCCC(C)C1)OCO4 (stereo partly drawn) > 16 µg/mL

Give a short answer stating reported IC90 for COC1=C[C@]23CCCN2CCc2cc4c(cc2[C@@H]3[C@@H]1OC(=O)[C@@](O)(CCCC(C)(C)O)CC(=O)N1CCSCC1)OCO4 . > 16 µg/mL

Give the value of IC90 reported for the following: COC1=C[C@]23CCCN2CCc2cc4c(cc2[C@@H]3[C@@H]1OC(=O)[C@@](O)(CCCC(C)(C)O)CC(=O)N1CCC(O)CC1)OCO4 > 16 µg/mL
